I'd appreciate it if you could supply Efficacy values for the items below.
Study system: G-protein coupled receptor 39 (Homo sapiens) (UniProt O43194)
Sequence (O43194 whole entry): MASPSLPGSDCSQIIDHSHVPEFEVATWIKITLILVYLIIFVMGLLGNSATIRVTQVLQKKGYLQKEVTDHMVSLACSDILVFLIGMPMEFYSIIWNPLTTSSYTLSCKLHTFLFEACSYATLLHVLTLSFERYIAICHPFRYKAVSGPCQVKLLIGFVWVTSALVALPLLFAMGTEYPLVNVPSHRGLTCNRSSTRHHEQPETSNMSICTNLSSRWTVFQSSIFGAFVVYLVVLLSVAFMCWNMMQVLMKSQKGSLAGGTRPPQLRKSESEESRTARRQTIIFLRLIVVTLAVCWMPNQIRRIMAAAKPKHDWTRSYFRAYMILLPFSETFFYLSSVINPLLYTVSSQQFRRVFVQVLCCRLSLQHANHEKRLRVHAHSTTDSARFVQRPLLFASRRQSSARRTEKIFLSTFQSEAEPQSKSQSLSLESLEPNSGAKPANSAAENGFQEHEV
Test description: Agonist activity at human GPR39 expressed in HEK293 cells by cAMP assay relative to forskolin
Assay type: functional, cell-based
Give bare numbers, in %.

Example cases with answers are listed next.
[Cl-].[Cl-].[Zn+2] [ZINC CHLORIDE]    48
CNc1nc(NCc2ccc(NS(C)(=O)=O)cc2)cc(-c2ccccn2)n1    55
CNc1nc(NCc2ccc(NS(C)(=O)=O)cc2Cl)cc(-c2ccccn2)n1    64
CNc1nc(NCc2ccc(NC(C)=O)cc2F)cc(-c2ccccn2)n1    55

Next compound, Efficacy to be filled in.
Asked: Complete the entry with Efficacy for `CNc1nc(NCc2ccc(NC(C)=O)cc2)cc(-c2ccccn2)n1`
Given back: 48

These data points were gathered from ChEMBL document CHEMBL3352269.
